- studySystem: human recombinant serotonin (5-Hydroxytryptamine) 5-HT2C receptor (Homo sapiens)
- Construct: expressed in transfected cells; host or cells: Chinese hamster ovary (CHO-K1) cells
- Sequence (P28335 33-458): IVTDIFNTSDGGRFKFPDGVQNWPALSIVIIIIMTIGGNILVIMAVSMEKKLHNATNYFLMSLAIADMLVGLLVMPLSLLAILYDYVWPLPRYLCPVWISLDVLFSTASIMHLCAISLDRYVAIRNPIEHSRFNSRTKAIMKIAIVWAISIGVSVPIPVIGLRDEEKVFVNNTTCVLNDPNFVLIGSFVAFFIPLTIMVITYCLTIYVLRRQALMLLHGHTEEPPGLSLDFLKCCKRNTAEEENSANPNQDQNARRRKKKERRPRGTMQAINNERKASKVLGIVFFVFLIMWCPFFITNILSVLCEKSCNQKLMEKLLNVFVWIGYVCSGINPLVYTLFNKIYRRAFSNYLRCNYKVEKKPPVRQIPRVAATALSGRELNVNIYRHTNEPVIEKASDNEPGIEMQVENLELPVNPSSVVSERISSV
- testDetails: Serotonin 5-HT2C radioligand binding assay ([3H]Mesulergine)
- conditionsUsed: compound at 0.1 μM; 1 nM [3H]Mesulergine; CHO-K1 cells; read-out: Percent Inhibition of ligand binding, Serotonin (0.1 μM) 5-HT2C

| compound | unitName | inhibition at 0.1 µM |
| --- | --- | --- |
| CCCC[C@](O)(Cn1c2c(c3cc(Cl)ccc31)CN(C)CC2)c1ccc(F)cc1 | % | 88 |
| CC[C@@](O)(Cn1c2c(c3cc(C)ccc31)CN(C)CC2)c1ccc(F)cc1 | % | 84 |
| CCCC[C@@](O)(Cn1c2c(c3cc(Cl)ccc31)CN(C)CC2)c1ccc(F)cc1 | % | 51 |
| CC[C@](O)(Cn1c2c(c3cc(C)ccc31)CN(C)CC2)c1ccc(F)cc1 | % | 67 |
| Cc1ccc2c(c1)c1c(n2CCc2ccc(C)nc2)CC(C)N(C)C1 (centres unmarked) | % | 45 |
| Cc1ccc(CCn2c3c(c4cc(Cl)ccc42)CN(C)C(C)C3)cn1 (centres unmarked) | % | 40 |
| Cc1ccc2c(c1)c1c(n2CCc2ccc(C(F)(F)F)nc2)C(C)CN(C)C1 (centres unmarked) | % | 92 |
| Cc1ccc2c(c1)c1c(n2CC(C)c2ccncc2)CCN(C)C1 (centres unmarked) | % | 83 |
